- Study Target: T1, Fusion protein of LAG-3 extracellular region and hIgG1 Fc (human)
- T1 construct: Limits of the signal peptide are marked only by lost underlining; also called LAG-3-Fc; LAG-3-Fc fusion protein
- T1 sequence (chain, as listed by the source limits assumed): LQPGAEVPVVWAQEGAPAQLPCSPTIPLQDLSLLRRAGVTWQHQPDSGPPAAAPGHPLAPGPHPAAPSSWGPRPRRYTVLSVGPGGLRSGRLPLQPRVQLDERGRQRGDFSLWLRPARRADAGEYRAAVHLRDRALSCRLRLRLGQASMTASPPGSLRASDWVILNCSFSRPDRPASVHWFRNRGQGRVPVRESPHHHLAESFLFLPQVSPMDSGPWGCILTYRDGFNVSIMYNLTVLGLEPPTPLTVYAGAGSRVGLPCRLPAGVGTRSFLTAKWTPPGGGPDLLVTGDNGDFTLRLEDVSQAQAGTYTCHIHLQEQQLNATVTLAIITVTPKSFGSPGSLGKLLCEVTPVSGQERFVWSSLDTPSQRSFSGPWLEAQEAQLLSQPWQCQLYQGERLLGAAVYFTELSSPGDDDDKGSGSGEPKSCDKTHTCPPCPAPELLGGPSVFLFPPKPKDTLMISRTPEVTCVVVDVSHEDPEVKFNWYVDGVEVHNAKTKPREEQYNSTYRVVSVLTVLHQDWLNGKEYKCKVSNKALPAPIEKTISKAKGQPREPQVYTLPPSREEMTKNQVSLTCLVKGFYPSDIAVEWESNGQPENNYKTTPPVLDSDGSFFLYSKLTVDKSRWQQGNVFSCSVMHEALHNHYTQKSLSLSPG
- Protocol Details: competition: biotin-LAG-3-Fc binding to fixed Daudi cells, antibody titrated
Measured Metric: IC50
Note: a bare number is incomplete; add the unit.

Hu303-017 (antibody, human IgG4 S228P, kappa, V domains shown, Humanized mAb303) VH: QVQLVQSGAEVKKPGASVKVSCKASGYTLTDYYMNWVRQAPGQRLEWMGVINPYNGDTAYNQKFKGRVTITVDKSASTAYMELSSLRSEDTAVYYCTRDDGYYDYYFDVWGQGTTVTVSS VL: DIQMTQSPSSLSASVGDRVTITCRASQDIGSRLNWLQQKPGKAFKRLIYATSTLDSGVPKRFSGSRSGTDFTLTISSLQPEDFATYYCLQLASSPPTFGGGTKVEIKR ... 0.398 nM
Hu229-013 (antibody, human IgG4 S228P, kappa, V domains shown, also called LAG-3 antibody Hu229-013; LAG3 antibody Hu229-013) VH: QVQLVQSGSELKKPGASVKVSCKASGYTFTTSGMSWVKQAPGQGLKWMGWINTYSGVPTYADDFKGRFVFSLDTSVSTAYLQISSLKAEDTATYYCARDNYDARDVYYYAMDYWGQGTTVTVSS VL: DIQMTQSPSSLSASVGDRVTITCRASENIYSNLAWYQQKPGKAPKLLVYAATNLADGVPSRFSGSGSGTDYTLTISSLQPEDFATYYCQHFWITPWTFGGGTKVEIKR ... 0.39 nM

Please look at the following binder next.
query: Given the entry Hu303-009 (antibody, human IgG4 S228P, kappa, V domains shown, Humanized mAb303) VH: QVQLVQSGAEVKKPGASVKVSCKASGYTFTDYYMNWVRQAPGQRLEWMGVINPYNGDTAYNQKFKGRVTITVDKSASTAYMELSSLRSEDTAVYYCTRDDGYYDYYFDVWGQGTTVTVSS VL: DIQMTQSPSSLSASVGDRVTITCRASQDIGSRLNWYQQKPGKAPKLLIYATSTLDSGVPSRFSGSGSGTDFTLTISSLQPEDFATYYCLQLASSPPTFGGGTKVEIKR , report its measured IC50.
result: 0.417 nM

The measured values listed here are drawn from patent US20220031842A1.
